Tested on: fLuc mRNA harboring a UGA nonsense mutation at codon 190 (fLuc-190-NS)
Type: biochemical, rabbit
TEST_CONTEXT: AVERAGE (S1 File)
Record form. Attribute: fLuc-190-NS MaxFold. Fill in for each entry.
# print the numeric value only

input: Request the reported fLuc-190-NS MaxFold associated with `CN[C@@H]1[C@@H](O)[C@@H](O[C@@H]2[C@@H](O)[C@H](O[C@H]3OC(CN)=CC[C@H]3N)[C@@H](N)C[C@H]2N)OC[C@]1(C)O`
output: 4.0

input: Do the same for CN[C@@H]1[C@@H](O)[C@@H](O[C@@H]2[C@@H](O)[C@H](O[C@H]3O[C@H](CO)[C@@H](O)[C@H](O)[C@H]3N)[C@@H](N)C[C@H]2N)OC[C@]1(C)O (stereo in doubt) please
output: 195.3

input: Similarly, `CN[C@@H]1[C@@H](O)[C@@H](O[C@@H]2[C@@H](O)[C@H](O[C@H]3O[C@H]([C@@H](C)N)CC[C@H]3N)[C@@H](N)C[C@H]2N)OC[C@]1(C)O` ?
output: 97.2
